Molecular target: CFTR (Homo sapiens, UniProt P13569)
Sequence (P13569 with tags, fused parts or gaps DEL508-508): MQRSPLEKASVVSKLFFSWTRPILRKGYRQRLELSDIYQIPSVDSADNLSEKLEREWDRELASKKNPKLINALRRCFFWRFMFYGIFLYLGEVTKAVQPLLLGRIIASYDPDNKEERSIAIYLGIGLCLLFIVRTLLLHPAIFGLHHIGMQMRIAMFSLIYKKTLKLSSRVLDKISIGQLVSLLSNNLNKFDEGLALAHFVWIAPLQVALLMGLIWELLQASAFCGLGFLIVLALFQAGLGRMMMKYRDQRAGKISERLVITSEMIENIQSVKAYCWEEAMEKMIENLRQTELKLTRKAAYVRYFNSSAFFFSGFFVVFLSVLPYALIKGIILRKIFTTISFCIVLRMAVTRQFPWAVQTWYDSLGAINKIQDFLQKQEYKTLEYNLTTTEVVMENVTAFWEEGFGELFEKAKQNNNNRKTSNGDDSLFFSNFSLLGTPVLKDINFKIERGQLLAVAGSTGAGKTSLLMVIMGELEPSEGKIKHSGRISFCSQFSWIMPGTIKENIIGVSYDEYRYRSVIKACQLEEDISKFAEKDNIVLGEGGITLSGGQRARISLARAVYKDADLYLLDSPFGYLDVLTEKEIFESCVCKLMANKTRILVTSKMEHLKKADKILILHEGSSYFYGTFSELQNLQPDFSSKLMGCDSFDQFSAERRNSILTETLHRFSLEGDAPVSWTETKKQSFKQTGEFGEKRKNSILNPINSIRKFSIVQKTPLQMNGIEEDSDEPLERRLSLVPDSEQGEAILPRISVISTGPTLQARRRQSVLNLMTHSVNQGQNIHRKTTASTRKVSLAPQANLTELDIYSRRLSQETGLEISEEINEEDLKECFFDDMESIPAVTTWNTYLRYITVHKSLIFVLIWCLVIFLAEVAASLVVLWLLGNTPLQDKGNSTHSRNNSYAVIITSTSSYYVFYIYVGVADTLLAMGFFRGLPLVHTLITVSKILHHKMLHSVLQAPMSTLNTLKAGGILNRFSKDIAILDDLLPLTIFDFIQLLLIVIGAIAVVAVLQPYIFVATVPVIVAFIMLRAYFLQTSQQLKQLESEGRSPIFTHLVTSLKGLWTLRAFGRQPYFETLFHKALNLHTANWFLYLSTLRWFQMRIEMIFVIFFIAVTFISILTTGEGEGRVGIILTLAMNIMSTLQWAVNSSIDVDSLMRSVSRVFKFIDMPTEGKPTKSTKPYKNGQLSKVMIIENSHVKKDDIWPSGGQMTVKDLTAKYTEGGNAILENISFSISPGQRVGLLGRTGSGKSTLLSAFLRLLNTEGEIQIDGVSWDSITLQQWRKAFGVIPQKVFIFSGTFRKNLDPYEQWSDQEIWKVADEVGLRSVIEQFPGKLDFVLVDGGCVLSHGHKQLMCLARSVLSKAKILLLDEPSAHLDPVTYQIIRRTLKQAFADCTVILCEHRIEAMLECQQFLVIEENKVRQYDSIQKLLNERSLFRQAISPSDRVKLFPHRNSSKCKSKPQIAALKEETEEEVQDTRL
Assay: Membrane Potential Dye, Enteroid Assay A
Assay type: cell-based
Settings: Enteroid Assay A; read-out: Ent. A EC50
Reported EC50 values follow for various molecules

molecule	EC50
Cc1cccc(C)c1-c1cc2nc(n1)NS(=O)(=O)c1cccc(c1)C(=O)NCC1(CCN(Cc3ccccc3)CC1)CO2 [Compound 442]	3 to 30 µM
Cc1cccc(C)c1-c1cc2nc(n1)NS(=O)(=O)c1cccc(c1)C(=O)NC1CC(CN(CCC3(C(F)(F)F)CC3)C1)O2 (stereo not shown) [Compound 194]	1 to 3 µM
Cc1cccc(C)c1-c1cc2nc(n1)NS(=O)(=O)c1cccc(c1)C(=O)N[C@@H]1CCCCC1O2 (stereo in doubt) [Compound 487]	< 1 µM
CC(C)C[C@@H]1COc2cc(C3=CCCCC3)nc(n2)NS(=O)(=O)c2cccc(c2)C(=O)N1 [Compound 327]	1 to 3 µM
CC(C)COc1cccc(-c2cc3nc(n2)NS(=O)(=O)c2cccc(c2)C(=O)N[C@H](CC(C)C)CO3)c1 [Compound 331]	1 to 3 µM
Cc1cccc(C)c1-c1cc2nc(n1)NS(=O)(=O)c1cccc(c1)C(=O)NC(Cc1ccccc1)CO2 (stereo not shown) [Compound 206]	< 1 µM
Cc1cccc(C)c1-c1cc2nc(n1)NS(=O)(=O)c1cccc(c1)C(=O)NCC1(CCN(CCc3ccccc3)CC1)CO2 [Compound 444]	3 to 30 µM

###

// values below are reported EC50
Molecular target: CFTR (Homo sapiens, UniProt P13569)
Experiment: Membrane Potential Dye, Enteroid Assay A
Assay type: cell-based
Conditions: Table 8; read-out: Ent. A EC50
Method: Base medium (ADF+++) consisted of Advanced DMEM/Ham's F12, 2 mM Glutamax, 10 mM HEPES, […] penicillin/streptomycin. Bath 1 Buffer consisted of 1 mM MgCl2, 160 mM NaCl, 4.5 mM KCl, 10 mM HEPES, 10 mM Glucose, 2 mM CaCl2). […] Briefly, cells were washed 5 times in Bath 1 Buffer. […] Chloride transport was initiated by addition of Chloride Free Dye Stimulation Solution and the fluorescence signal was read for 15 min. […]
measured_parameter: EC50

compound	measured_parameter	result
Cc1cccc(C)c1-c1cc2nc(n1)NS(=O)(=O)c1cccc(c1)C(=O)NCC(c1ccccc1C(C)(C)C)O2 (stereo not drawn) [Compound 278]	EC50	< 1 µM
Cc1cccc(C)c1-c1cc2nc(n1)NS(=O)(=O)c1cccc(c1)C(=O)N[C@H](C)[C@H](c1ccc(C(C)(C)C)cc1)O2 [Compound 134]	EC50	< 1 µM
Cc1cccc(C)c1-c1cc2nc(n1)NS(=O)(=O)c1cccc(c1)CN[C@H](CC1CCCCC1)CO2 [Compound 286]	EC50	3 to 30 µM
Cc1cccc(C)c1-c1cc2nc(n1)NS(=O)(=O)c1cccc(c1)C(=O)NC[C@H](c1ccc(C(C)(C)C)cc1)O2 (single isomer, unassigned) [Compound 4]	EC50	3 to 30 µM
COc1cccc(C)c1-c1cc2nc(n1)NS(=O)(=O)c1cccc(c1)C(=O)N[C@H](CC(C)(C)C)CO2 [Compound 304]	EC50	1 to 3 µM
CCCC[C@@H]1Oc2cc(-c3c(C)cccc3C)nc(n2)NS(=O)(=O)c2cccc(c2)C(=O)N[C@@H]1CC1CCCCC1 (stereo in doubt) [Compound 287]	EC50	< 1 µM

All values here come from patent US20230382924A1.
